Reference source for all entries: patent US11014955B2

tested on: P. falc DD2; assay: Biological activity EC50, P. falc DD2; format: cell-based; settings: Plasmodium falciparum; Target (Cell Line): P. falc DD2
pEC50: −log10 of the molar value. Structures can show the parent of a compound that is named as a salt.

compound	pEC50
CN(C)c1cccc2c(S(=O)(=O)N3CCC4(CC3)OOC3(O4)C4CC5CC(C4)CC3C5)cccc12 (stereo not drawn) [Example 21]	7.27
COc1ccc(C[C@H](NC(=O)OC2CCCC3(C2)OOC2(O3)C3CC4CC(C3)CC2C4)C(=O)N[C@H]2[C@@H](O)[C@H](n3cnc4c(N(C)C)ncnc43)O[C@@H]2CO)cc1 (stereo partly drawn) [Example 22]	7.90
CCCCN(CCCC)CCC(OC(=O)OC1CCCC2(C1)OOC1(O2)C2CC3CC(C2)CC1C3)c1cc2c(Cl)cc(Cl)cc2c2cc(C(F)(F)F)ccc12 (stereo not drawn) [Example 8]	7.82
COc1ccc(C[C@H](N)C(=O)N[C@H]2[C@@H](O)[C@H](n3cnc4c(N(C)C)ncnc43)O[C@@H]2CO)cc1 [Puromycin dihydrochloride, reference compound]	7.60
CN(C)c1cccc2c(S(=O)(=O)NC34CC5CC(C3)C3(OOC6(CCCCC6)O3)C(C5)C4)cccc12 (stereo not drawn) [Example 20]	7.94
O=C1C(O)=C(C2CCC3(CC2)OOC2(O3)C3CC4CC(C3)CC2C4)C(=O)c2ccccc21 (stereo not drawn) [Example 10]	6.73

====

tested on: HeLa; test: Biological activity EC50, HeLa; assay type: cell-based; conditions: Homo sapiens; Target (Cell Line): HeLa
pEC50: −log10 of the molar value. Structures can show the parent of a compound that is named as a salt.
readout-name: pEC50

molecule	readout-name	comparison-sign	meas-value
COc1ccc(-c2cnnn2-c2cc(OC)c(OC)c(OC)c2)cc1NC(=O)OC1CCCC2(C1)OOC1(O2)C2CC3CC(C2)CC1C3 (stereo not drawn)	pEC50	=	7.24
COc1ccc(/C=C/C(=O)N2CC(CCl)c3c2cc(NC(=O)OC2CCCC4(C2)OOC2(O4)C4CC5CC(C4)CC2C5)c2ccccc32)cc1 (stereo not drawn)	pEC50	=	6.98
COc1ccc(C[C@H](N)C(=O)N[C@H]2[C@@H](O)[C@H](n3cnc4c(N(C)C)ncnc43)O[C@@H]2CO)cc1 [Puromycin dihydrochloride, reference compound]	pEC50	=	6.11
COc1ccc(-c2cnnn2-c2cc(OC)c(OC)c(OC)c2)cc1NC(=O)OC1CCCC2(COC3(O2)C2CC4CC(C2)CC3C4)C1 (stereo not drawn)	pEC50	<	6.00
COc1ccc(C[C@H](NC(=O)OC2CCCC3(C2)OOC2(O3)C3CC4CC(C3)CC2C4)C(=O)N[C@H]2[C@@H](O)[C@H](n3cnc4c(N(C)C)ncnc43)O[C@@H]2CO)cc1 (stereo partly drawn)	pEC50	=	5.49
COc1ccc(-c2cnnn2-c2cc(OC)c(OC)c(OC)c2)cc1N [Literature Compound B, reference compound]	pEC50	=	7.96

====

test system: HeLa; assay: Biological activity EC50, HeLa; format: cell-based; settings: Homo sapiens; Target (Cell Line): HeLa

molecule	EC50
COc1ccc(/C=C/C(=O)N2CC(CCl)c3c2cc(NC(=O)OC2CCCC4(C2)OCC2(O4)C4CC5CC(C4)CC2C5)c2ccccc32)cc1 (stereo not drawn) [Example 15]	> 1000 nM
COc1ccc(-c2cnnn2-c2cc(OC)c(OC)c(OC)c2)cc1NC(=O)OC1CCCC2(C1)OCC1(O2)C2CC3CC(C2)CC1C3 (stereo not drawn) [Example 12]	> 1000 nM
COc1ccc(/C=C/C(=O)N2CC(CCl)c3c2cc(N)c2ccccc32)cc1 (stereo not drawn) [Literature Compound C, reference compound]	11 nM

====

tested on: MB-MDA-231; experiment: Biological activity EC50, MB-MDA-231; format: cell-based; conditions: read-out: Activity EC50 (nM)
readout-name: EC50 (nM)

molecule	system-under-test	readout-name	meas-value
COc1ccc(-c2cnnn2-c2cc(OC)c(OC)c(OC)c2)cc1N [Literature Compound B, reference compound]	MB-MDA-231	EC50	10

====

test system: P. falc W2; assay: Biological activity EC50, P. falc W2; assay type: cell-based; details: Plasmodium falciparum, read-out: Activity EC50 (nM)
Each entry below carries its reported EC50.

molecule	comparison-sign	EC50 (nM)
COc1ccc(-c2cnnn2-c2cc(OC)c(OC)c(OC)c2)cc1N [Literature Compound B, reference compound]	>	1000
COc1ccc(/C=C/C(=O)N2CC(CCl)c3c2cc(N)c2ccccc32)cc1 (centres unmarked) [Literature Compound C, reference compound]	=	0.45

====

tested on: P. falc HB3; test: Biological activity EC50, P. falc HB3; format: cell-based; conditions: Plasmodium falciparum; Target (Cell Line): P. falc HB3
Each entry below carries its reported EC50.

compound	EC50 / nM
O=C1C(O)=C(C2CCC3(CC2)OOC2(O3)C3CC4CC(C3)CC2C4)C(=O)c2ccccc21 (centres unmarked)	94
CCCCN(CCCC)CCC(OC(=O)OC1CCCC2(C1)OOC1(O2)C2CC3CC(C2)CC1C3)c1cc2c(Cl)cc(Cl)cc2c2cc(C(F)(F)F)ccc12 (centres unmarked)	8

====

tested on: MCF-7; test: Biological activity EC50, MCF-7; format: cell-based; conditions: Homo sapiens, MCF7; Target (Cell Line): MCF-7

molecule	EC50
COc1ccc(-c2cnnn2-c2cc(OC)c(OC)c(OC)c2)cc1N [Literature Compound B, reference compound]	10 nM
COc1ccc(-c2cnnn2-c2cc(OC)c(OC)c(OC)c2)cc1NC(=O)OC1CCCC2(C1)OCC1(O2)C2CC3CC(C2)CC1C3 (stereo not shown)	> 1000 nM
COc1ccc(-c2cnnn2-c2cc(OC)c(OC)c(OC)c2)cc1NC(=O)OC1CCCC2(COC3(O2)C2CC4CC(C2)CC3C4)C1 (stereo not shown)	> 1000 nM
COc1ccc(-c2cnnn2-c2cc(OC)c(OC)c(OC)c2)cc1NC(=O)OC1CCCC2(C1)OOC1(O2)C2CC3CC(C2)CC1C3 (stereo not shown)	24 nM

====

test system: P. falc 3D7; test: Biological activity EC50, P. falc 3D7; format: cell-based; settings: Plasmodium falciparum; Target (Cell Line): P. falc 3D7
pEC50: −log10 of the molar value.
Each entry below carries its reported pEC50.

compound	pEC50
O=C1C(O)=C(C2CCC3(CC2)OOC2(O3)C3CC4CC(C3)CC2C4)C(=O)c2ccccc21 (centres unmarked) [Example 10]	6.73
CCCCN(CCCC)CCC(OC(=O)OC1CCCC2(C1)OOC1(O2)C2CC3CC(C2)CC1C3)c1cc2c(Cl)cc(Cl)cc2c2cc(C(F)(F)F)ccc12 (centres unmarked) [Example 8]	7.68

====

system: P. falc W2; test: Biological activity EC50, P. falc W2; format: cell-based; details: Plasmodium falciparum; Target (Cell Line): P. falc W2; read-out: Activity EC50
pEC50: −log10 of the molar value.
Each entry below carries its reported pEC50.

compound	system-under-test	comparison-sign	pEC50
COC1CCC[C@]2(C1)OOC1(O2)C2CC3CC(C2)CC1C3 (stereo partly drawn) [Example 25]	P. falc W2	=	7.57
COc1ccc(/C=C/C(=O)N2CC(CCl)c3c2cc(NC(=O)OC2CCCC4(C2)OCC2(O4)C4CC5CC(C4)CC2C5)c2ccccc32)cc1 (stereo not drawn) [Example 15]	P. falc W2	=	7.39
COc1ccc(-c2cnnn2-c2cc(OC)c(OC)c(OC)c2)cc1NC(=O)OC1CCCC2(C1)OCC1(O2)C2CC3CC(C2)CC1C3 (stereo not drawn) [Example 12]	P. falc W2	<	6.00
CC(C)(N)CNC(=O)OC1CCCC2(C1)OOC1(O2)C2CC3CC(C2)CC1C3 (stereo not drawn) [Example 23]	P. falc W2	=	8.30
CCNC(=O)OC1CCCC2(C1)OOC1(O2)C2CC3CC(C2)CC1C3 (stereo not drawn) [Example 5]	P. falc W2	=	8.23
COc1ccc(-c2cnnn2-c2cc(OC)c(OC)c(OC)c2)cc1NC(=O)OC1CCCC2(COC3(O2)C2CC4CC(C2)CC3C4)C1 (stereo not drawn) [Example 13]	P. falc W2	<	6.00
COc1ccc(-c2cnnn2-c2cc(OC)c(OC)c(OC)c2)cc1NC(=O)OC1CCCC2(C1)OOC1(O2)C2CC3CC(C2)CC1C3 (stereo not drawn) [Example 11]	P. falc W2	=	7.47
COc1ccc(/C=C/C(=O)N2CC(CCl)c3c2cc(NC(=O)OC2CCCC4(C2)OOC2(O4)C4CC5CC(C4)CC2C5)c2ccccc32)cc1 (stereo not drawn) [Example 14]	P. falc W2	=	8.55
O=C(OC1CCCC2(C1)OOC1(O2)C2CC3CC(C2)CC1C3)N1CCCCC1[C@@H](O)c1cc(C(F)(F)F)nc2c(C(F)(F)F)cccc12 (stereo partly drawn) [Example 6]	P. falc W2	=	7.77
